These data points were gathered from ChEMBL document CHEMBL1140226.

test_system: UniProt:Q969F8
Sequence (Q969F8 whole entry): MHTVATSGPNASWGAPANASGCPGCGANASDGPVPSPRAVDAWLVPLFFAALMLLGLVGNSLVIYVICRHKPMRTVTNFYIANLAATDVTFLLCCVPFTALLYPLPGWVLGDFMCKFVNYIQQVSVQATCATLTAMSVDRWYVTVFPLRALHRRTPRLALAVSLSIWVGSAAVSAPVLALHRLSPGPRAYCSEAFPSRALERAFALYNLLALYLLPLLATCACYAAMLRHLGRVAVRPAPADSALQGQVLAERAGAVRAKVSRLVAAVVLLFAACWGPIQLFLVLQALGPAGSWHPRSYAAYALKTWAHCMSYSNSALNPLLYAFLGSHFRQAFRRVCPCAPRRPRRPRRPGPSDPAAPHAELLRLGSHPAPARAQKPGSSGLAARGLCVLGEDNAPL
assay_comment: Displacement of [125I]kisspeptin-15 from human GPR54 expressed in CHO cell membrane
pIC50: −log10 of the molar value.
metric_name: pIC50

A: CC(C)C[C@H](C[C@H](O)CNC(=O)[C@H](Cc1ccccc1)NC(=O)c1ccc(F)cc1)C(=O)N[C@@H](CCCN=C(N)N)C(=O)N[C@@H](Cc1c[nH]c2ccccc12)C(N)=O
B: CC(C)C[C@H](NC(=O)CNC(=O)[C@H](Cc1ccccc1)NC(=O)c1ccc(F)cc1)C(=O)N[C@@H](CCCN=C(N)N)C(=O)N[C@@H](Cc1c[nH]c2ccccc12)C(N)=O
C: CC(C)C[C@@H](NC(=O)CNC(=O)[C@H](Cc1ccccc1)NC(=O)c1ccc(F)cc1)C(=O)N[C@@H](CCCNC(=N)N)C(=O)N[C@@H](Cc1c[nH]c2ccccc12)C(N)=O
Ranking request: pIC50, max to min, items above. Thanks in advance for listing the labels in the requested order.
A, B, C
(A: 9.62, B: 9.15, C: 6.62)
